assay: Plasma concentration of mivorilaner, 0.75 mg/kg daily oral (Examples 4 and 10); assay type: in vivo, dogs; settings: dog, 0.75 mg/kg/day, 0.75 mg/kg/day oral days 0-29, Day 37, read-out: Mivorilaner Concentration, Average of 6 canines
recordedEndpoint: concentration at 37 day (ng/mL)

>>> endpointresult("O=C(CNC(=O)c1sc(C2=NO[C@@](c3cc(Cl)c(F)c(Cl)c3)(C(F)(F)F)C2)c2c1CCC2)NCC(F)F")
2020

###

test: Average plasma concentration of mivorilaner, various daily oral doses (Examples 5 and 11); type: in vivo, dogs; conditions: dog, Group 3, 0.25 mg/kg/day oral, fed, 1440 h after initial dose
recordedEndpoint: concentration at 1440 h (ng/mL)

>>> endpointresult("O=C(CNC(=O)c1sc(C2=NO[C@@](c3cc(Cl)c(F)c(Cl)c3)(C(F)(F)F)C2)c2c1CCC2)NCC(F)F")
999

###

assay: Average plasma concentration of mivorilaner, various daily oral doses (Examples 5 and 11); assay type: in vivo, dogs; details: dog, Group 2, 0.125 mg/kg/day oral, fed, 1224 h after initial dose
recordedEndpoint: concentration at 1224 h (ng/mL)

>>> endpointresult("O=C(CNC(=O)c1sc(C2=NO[C@@](c3cc(Cl)c(F)c(Cl)c3)(C(F)(F)F)C2)c2c1CCC2)NCC(F)F [mivorilaner]")
486

###

experiment: Average plasma concentration of mivorilaner, various daily oral doses (Examples 5 and 11); format: in vivo, dogs; conditions: dog, Group 3, 0.25 mg/kg/day oral, fed, 168 h after initial dose
recordedEndpoint: concentration at 168 h (ng/mL)

>>> endpointresult("O=C(CNC(=O)c1sc(C2=NO[C@@](c3cc(Cl)c(F)c(Cl)c3)(C(F)(F)F)C2)c2c1CCC2)NCC(F)F [mivorilaner]")
579

###

experiment: Plasma concentration of mivorilaner, 0.75 mg/kg daily oral (Examples 4 and 10); assay type: in vivo, dogs; settings: dog, 0.75 mg/kg/day, 0.75 mg/kg/day oral days 0-29, Day 21, read-out: Mivorilaner Concentration, Average of 6 canines
recordedEndpoint: concentration at 21 day (ng/mL)

>>> endpointresult("O=C(CNC(=O)c1sc(C2=NO[C@@](c3cc(Cl)c(F)c(Cl)c3)(C(F)(F)F)C2)c2c1CCC2)NCC(F)F")
2720

###

test: Average plasma concentration of mivorilaner, various daily oral doses (Examples 5 and 11); assay type: in vivo, dogs; conditions: dog, Group 4, 0.5 mg/kg/day oral, fed, 120 h after initial dose
recordedEndpoint: concentration at 120 h

>>> endpointresult("O=C(CNC(=O)c1sc(C2=NO[C@@](c3cc(Cl)c(F)c(Cl)c3)(C(F)(F)F)C2)c2c1CCC2)NCC(F)F")
"763 ng/mL"

###

assay: Average plasma concentration of mivorilaner, various daily oral doses (Examples 5 and 11); type: in vivo, dogs; conditions: dog, Group 3, 0.25 mg/kg/day oral, fed, 720 h after initial dose
recordedEndpoint: concentration at 720 h (ng/mL)

>>> endpointresult("O=C(CNC(=O)c1sc(C2=NO[C@@](c3cc(Cl)c(F)c(Cl)c3)(C(F)(F)F)C2)c2c1CCC2)NCC(F)F")
1020

###

test: Average plasma concentration of mivorilaner, various daily oral doses (Examples 5 and 11); assay type: in vivo, dogs; details: dog, Group 5, 1.0 mg/kg/day oral, fed, 0 h after initial dose
recordedEndpoint: concentration at 0 h (µg/mL)

>>> endpointresult("O=C(CNC(=O)c1sc(C2=NO[C@@](c3cc(Cl)c(F)c(Cl)c3)(C(F)(F)F)C2)c2c1CCC2)NCC(F)F")
0

###

assay: Average plasma concentration of mivorilaner, various daily oral doses (Examples 5 and 11); type: in vivo, dogs; settings: dog, Group 2, 0.125 mg/kg/day oral, fed, 1440 h after initial dose
recordedEndpoint: concentration at 1440 h

>>> endpointresult("O=C(CNC(=O)c1sc(C2=NO[C@@](c3cc(Cl)c(F)c(Cl)c3)(C(F)(F)F)C2)c2c1CCC2)NCC(F)F [mivorilaner]")
"898 ng/mL"

###

experiment: Average plasma concentration of mivorilaner, various daily oral doses (Examples 5 and 11); format: in vivo, dogs; settings: dog, Group 3, 0.25 mg/kg/day oral, fed, 72 h after initial dose
recordedEndpoint: concentration at 72 h (ng/mL)

>>> endpointresult("O=C(CNC(=O)c1sc(C2=NO[C@@](c3cc(Cl)c(F)c(Cl)c3)(C(F)(F)F)C2)c2c1CCC2)NCC(F)F [mivorilaner]")
283

###

assay: Average plasma concentration of mivorilaner, various daily oral doses (Examples 5 and 11); format: in vivo, dogs; conditions: dog, Group 4, 0.5 mg/kg/day oral, fed, 1224 h after initial dose
recordedEndpoint: concentration at 1224 h (ng/mL)

>>> endpointresult("O=C(CNC(=O)c1sc(C2=NO[C@@](c3cc(Cl)c(F)c(Cl)c3)(C(F)(F)F)C2)c2c1CCC2)NCC(F)F")
2320

###

experiment: Average plasma concentration of mivorilaner, various daily oral doses (Examples 5 and 11); type: in vivo, dogs; details: dog, Group 3, 0.25 mg/kg/day oral, fed, 888 h after initial dose
recordedEndpoint: concentration at 888 h (ng/mL)

>>> endpointresult("O=C(CNC(=O)c1sc(C2=NO[C@@](c3cc(Cl)c(F)c(Cl)c3)(C(F)(F)F)C2)c2c1CCC2)NCC(F)F")
1000

###

experiment: Average plasma concentration of mivorilaner, various daily oral doses (Examples 5 and 11); type: in vivo, dogs; conditions: dog, Group 4, 0.5 mg/kg/day oral, fed, 336 h after initial dose
recordedEndpoint: concentration at 336 h

>>> endpointresult("O=C(CNC(=O)c1sc(C2=NO[C@@](c3cc(Cl)c(F)c(Cl)c3)(C(F)(F)F)C2)c2c1CCC2)NCC(F)F")
"1460 ng/mL"

###

assay: Average plasma concentration of mivorilaner, various daily oral doses (Examples 5 and 11); assay type: in vivo, dogs; settings: dog, Group 4, 0.5 mg/kg/day oral, fed, 888 h after initial dose
recordedEndpoint: concentration at 888 h

>>> endpointresult("O=C(CNC(=O)c1sc(C2=NO[C@@](c3cc(Cl)c(F)c(Cl)c3)(C(F)(F)F)C2)c2c1CCC2)NCC(F)F")
"1990 ng/mL"

###

test: Average plasma concentration of mivorilaner, various daily oral doses (Examples 5 and 11); assay type: in vivo, dogs; details: dog, Group 3, 0.25 mg/kg/day oral, fed, 1224 h after initial dose
recordedEndpoint: concentration at 1224 h (ng/mL)

>>> endpointresult("O=C(CNC(=O)c1sc(C2=NO[C@@](c3cc(Cl)c(F)c(Cl)c3)(C(F)(F)F)C2)c2c1CCC2)NCC(F)F")
1040

###

test: Average plasma concentration of mivorilaner, various daily oral doses (Examples 5 and 11); assay type: in vivo, dogs; conditions: dog, Group 4, 0.5 mg/kg/day oral, fed, 1440 h after initial dose
recordedEndpoint: concentration at 1440 h (ng/mL)

>>> endpointresult("O=C(CNC(=O)c1sc(C2=NO[C@@](c3cc(Cl)c(F)c(Cl)c3)(C(F)(F)F)C2)c2c1CCC2)NCC(F)F")
2300

###

test: Average plasma concentration of mivorilaner, various daily oral doses (Examples 5 and 11); type: in vivo, dogs; settings: dog, Group 4, 0.5 mg/kg/day oral, fed, 168 h after initial dose
recordedEndpoint: concentration at 168 h (ng/mL)

>>> endpointresult("O=C(CNC(=O)c1sc(C2=NO[C@@](c3cc(Cl)c(F)c(Cl)c3)(C(F)(F)F)C2)c2c1CCC2)NCC(F)F [mivorilaner]")
888

###

assay: Average plasma concentration of mivorilaner, various daily oral doses (Examples 5 and 11); format: in vivo, dogs; conditions: dog, Group 2, 0.125 mg/kg/day oral, fed, 72 h after initial dose
recordedEndpoint: concentration at 72 h (ng/mL)

>>> endpointresult("O=C(CNC(=O)c1sc(C2=NO[C@@](c3cc(Cl)c(F)c(Cl)c3)(C(F)(F)F)C2)c2c1CCC2)NCC(F)F")
136

###

test: Plasma concentration of mivorilaner, 0.75 mg/kg daily oral (Examples 4 and 10); assay type: in vivo, dogs; conditions: dog, 0.75 mg/kg/day, 0.75 mg/kg/day oral days 0-29, Day 7, read-out: Mivorilaner Concentration, Average of 6 canines
recordedEndpoint: concentration at 7 day (ng/mL)

>>> endpointresult("O=C(CNC(=O)c1sc(C2=NO[C@@](c3cc(Cl)c(F)c(Cl)c3)(C(F)(F)F)C2)c2c1CCC2)NCC(F)F")
1450

###

assay: Average plasma concentration of mivorilaner, various daily oral doses (Examples 5 and 11); format: in vivo, dogs; details: dog, Group 5, 1.0 mg/kg/day oral, fed, 120 h after initial dose
recordedEndpoint: concentration at 120 h

>>> endpointresult("O=C(CNC(=O)c1sc(C2=NO[C@@](c3cc(Cl)c(F)c(Cl)c3)(C(F)(F)F)C2)c2c1CCC2)NCC(F)F")
"1510 ng/mL"

###

experiment: Average plasma concentration of mivorilaner, various daily oral doses (Examples 5 and 11); format: in vivo, dogs; conditions: dog, Group 5, 1.0 mg/kg/day oral, fed, 504 h after initial dose
recordedEndpoint: concentration at 504 h (ng/mL)

>>> endpointresult("O=C(CNC(=O)c1sc(C2=NO[C@@](c3cc(Cl)c(F)c(Cl)c3)(C(F)(F)F)C2)c2c1CCC2)NCC(F)F [mivorilaner]")
3020
